Where do these numbers come from? They come from the supplement of paper PMC6555819.

Tested on: PPARg:RXRa DBDmut IVT, anti-RXR (DBD mutation: RXRa K156A/R161A, NR concentration 270 nM, RXRa partner concentration 90 nM)
Assay: PBM binding z-score (relative to random genomic background probes); higher = stronger binding; sequences stand for … in GC…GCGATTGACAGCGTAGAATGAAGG
Category key, based on recorded PBM binding z-score: small value = under 0.7, mid value = from 0.7 up to 3, large value = 3 and over

{"columns": ["item.sequence", "class.label"],
 "data": [
  ["CCTTACGGGTCGCTCCAGGTTATAGCATCGGAGT", "small value"],
  ["AAAACGAGGGCACGCTGAGTTGATAGCAGAGTAG", "large value"],
  ["CCTACTGAGCCATTCAGAGGTCATTGATCATATG", "mid value"],
  ["ACCAGCAGGCCAAGTTTGGGTCACTCAAACAAAG", "small value"],
  ["GCAGACAGATGAAACGCAGGTAACTCAGGGTGGC", "small value"],
  ["AGAACGAGGGCACGCTGATTTGATAGCAGAGTAG", "large value"],
  ["CCGAGTAGGTTATGGCGCATTCAGGCAACGGTGA", "large value"],
  ["ATCTCTACGTAAAAGTTCAGTGAATCCCGAGGAT", "small value"],
  ["TAATATAGGTAAAAGGTGAAAGTCGGTGTGGTAA", "large value"],
  ["GCTTACGGGTCAAACGTTATAGCATGAATAGAAT", "large value"],
  ["CCTTACGGGACAAGGTTATAGCACGGGTGGTACG", "small value"],
  ["AGTCAAAGTTCAGGACGATGTAACGTAAAGCACG", "small value"],
  ["GCTTTTAGATCAAGGTTAAGAAAGACTAAGCTAA", "mid value"],
  ["TCTTGTAGATCAAGCAGGTTTAGAAAGCCTGAGT", "mid value"],
  ["TCTAGCAGGCCAGAGGGTAACTCAAGAGGTACGG", "small value"],
  ["CCTACTGGGCCGCGAAAGGTCATTGATTCAGTGA", "mid value"],
  ["CGAACTAGGTCATTGACAGGACAGTCAATAGTAA", "large value"],
  ["GCTAGTTGGTCAGTAAAAGGGCACACACCGGTCG", "small value"],
  ["ATCTCTAGGTAAAGATAGTTCAGAGAATGCAAAT", "mid value"],
  ["CCGAGTAGGTTATGGGGCATTGAGGCAACGGTGA", "large value"],
  ["AATAGAGGGTCACTAGGCCAGAGTAGGTACGAAT", "large value"],
  ["TCATATAGTTAATACAGGTGAAAGTCGGCATCTA", "mid value"],
  ["ATCGAAAGGTCGTGAGGTGCGTATACAGAAAGGC", "small value"],
  ["CAAACTAGGTCAAATGTCAAAGTCGAGCCAACCA", "large value"],
  ["CGTCATAGTTCAAGGTAACGTAACAGAAAGCAGC", "small value"],
  ["GGAACGAGGGCAAGTTGATGGCAGAGTTTGATGG", "large value"],
  ["ATACCAAGGTGACCGTGAGGTCGTTGATACTAAC", "mid value"],
  ["ACTACCAGGCCAAGGGTCACTCAAGATTAGTCCG", "mid value"],
  ["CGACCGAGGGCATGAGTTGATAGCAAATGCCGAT", "small value"],
  ["TCTCGAAGGACACGAAAGGTCAGAGCTCGACATC", "mid value"]
]}

###

Tested on: LXRb:RXRa (NR concentration 270 nM, RXRa partner concentration 90 nM)
Assay: PBM binding z-score (relative to random genomic background probes); higher = stronger binding; sequences stand for … in GC…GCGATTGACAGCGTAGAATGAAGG
Threshold rule: PBM binding z-score greater than or equal to 2 is Criterion met; below that, Criterion not met.

{"columns": ["item.sequence", "class.label"],
 "data": [
  ["CTTAGCAGGCCAGGGTCACTCAAGCATTTCGCTT", "Criterion met"],
  ["GGAACCAGGGCAAAGTTGATAGCATCTGTCGACG", "Criterion not met"],
  ["TCTTTTAGTTGATTAGGGCAACCGAAACAGCGGA", "Criterion not met"],
  ["CGAACTCGGTCAGAACAGGACAGTGAAGGATGAT", "Criterion not met"],
  ["TCATATAGGTAAATGATAGGTGAAAGTCCGATCT", "Criterion not met"],
  ["CAAACTAGCTCAAGGTCAAAGTCGGTTTGTGCCA", "Criterion met"],
  ["TCATATAGGTAATACAGCTGAAAGTCGGCATCTA", "Criterion not met"],
  ["CGTCAAAGTTCAAGGTAACGTAGCAGAAAGCAGC", "Criterion met"],
  ["CCTACTGGGCCACCAAAGGTCATTGATTCAGTGA", "Criterion met"],
  ["TAGCCTAGGTCAGATCGTGCCAGTATACGCTATA", "Criterion not met"],
  ["ACTCGGAGGACAAGGGTCAGAGCTACGCCAGTGA", "Criterion not met"],
  ["CAAACTAGTTCAAAGGTCAAAGTCGAGCCAACCA", "Criterion met"],
  ["ACAGACAGGGGAGTGAAGGTAACTCAGCTGGACG", "Criterion not met"],
  ["CGAACTAGGTCATCCAGGACACTGAATACATTGA", "Criterion met"],
  ["CCTATTTGGTCAAGGTCACACACGCTATAGGTAC", "Criterion met"],
  ["CGAACAAGGTCAGAACAGGACAGTGAAGGATGAT", "Criterion met"],
  ["CCTACTGGGCCATTCAGACGTCATTGATCATATG", "Criterion not met"],
  ["ACAGACAAGTGAGTGAAGGTAACTCAGCTGGACG", "Criterion not met"],
  ["CAAACTAGGTCACAGACGTCAAAGTCCGTGCGTA", "Criterion met"],
  ["CTAACTAGGTCATTGACAGGACAGTGAATAGTAA", "Criterion met"],
  ["TCATATAGGTAAATGCTACGTGAAAGTCCGATCT", "Criterion not met"],
  ["CCTACTGGGCCACGAAAGGTCATTCATTCAGTGA", "Criterion met"],
  ["ACAGACAGGTGAGTGAAGGTGACTCAGCTGGACG", "Criterion not met"],
  ["TCTTGTAGATCAACAGGGGGTTAAGAAAGATCGA", "Criterion met"],
  ["TCTTTTAGATCAACAGGAGGTTAAGAAAGATCGA", "Criterion not met"],
  ["ACTACCAGGCCAAGTTTGGGTCACTCAAACAAAG", "Criterion not met"],
  ["GCTCGGAGGACATGGTCAGAGCTTTGTCCGTAGA", "Criterion not met"],
  ["TCGAGTAGGTTACCAATGGGGCATTCACCTTTCT", "Criterion not met"],
  ["GCATATAGGTAATACAAGGTGAAAATCCGATTGT", "Criterion not met"],
  ["GCTATTAGTCGAAAGGGCAACCGAATGATTCTCG", "Criterion not met"],
  ["TCTGGTAGATCAAAGGTTAAGAAAGCCGAAGCCT", "Criterion met"],
  ["AGAATGAGGTTATTAAAATCAGGGAATTGCGGTC", "Criterion not met"],
  ["CCGACTGGGGCAAGGTTGCCATAACGCACAGCCA", "Criterion not met"],
  ["CAAACTACGTCAAAGGTCAAAGTCGAGCCAACCA", "Criterion met"],
  ["GATACAGGGTCAGCTAGAGTCCAGAGTATGGAAA", "Criterion met"],
  ["CAAACTTGGTCAAGGTCAAAGTCGGTTTGTGCCA", "Criterion met"],
  ["AGAAAGAGGTTATTAAGATCAGGGAATTGCGGTC", "Criterion not met"],
  ["TCTATTAGTTGACGGGCAACCGACGAGTCCGTTT", "Criterion not met"],
  ["CATACAGGGTCAGCTAGGCCAGAGTTGGGACGGC", "Criterion met"],
  ["GATACAGGGTCAGGTAGAGGCCAGAGTATGGAAA", "Criterion met"],
  ["TGAATGAGGTTATAAGATCGGGGAACGTTGCAAA", "Criterion not met"],
  ["CAAACTAGGTCAAGAGGTAAAAGTCCGCTTCCCG", "Criterion met"],
  ["ACTCGGAGGACAAAGGTCTGAGCTACGCCAGTGA", "Criterion not met"]
]}

###

System: PPARg:RXRa 90nM:30nM, anti-RXR (NR concentration 90 nM, RXRa partner concentration 30 nM)
Assay: PBM binding z-score (relative to random genomic background probes); higher = stronger binding; sequences stand for … in GC…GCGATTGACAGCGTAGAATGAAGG
Measured PBM binding z-score by item
measured.parameter: PBM binding z-score

{"columns": ["item.sequence", "reported.result"],
 "data": [
  ["CAAACTAGGTAAAAGGTCAAAGTCGAGCCAACCA", 11.4],
  ["CCGACTGGGGCATAAGGTTACCATGAGCCAGCCC", 2.8],
  ["CCAGACAGGTGGGAAGGTAACTCAGCCTCGATTA", -0.529],
  ["CCTACTGGGCCACGAATGGTCATTGATTCAGTGA", 0.398],
  ["TTACCAAGGTGAAGGTCGTTGAGCCCTCTGTAGA", 3.92],
  ["AGAACGAGGGCACGATGAGTTGATAGCAGAGTAG", 1.51],
  ["TAGCCTAGGTCAGATCGGGCCAGTTTACGCTATA", -0.123],
  ["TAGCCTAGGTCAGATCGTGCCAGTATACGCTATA", 0.244],
  ["CCGACTGGGGTAGAAAGGTTACCATACCATCCGG", 3.32],
  ["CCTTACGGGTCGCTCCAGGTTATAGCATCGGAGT", -0.391],
  ["ATCGAAAGCTCGTGAGGTGAGTATACAGAAAGGC", -0.368],
  ["CGTCCAAGGTCAATGCTAGGTCAGTGAAAGCATT", 3.17],
  ["CTACCAAGGTGAACAAGGTCGTTGAGTACTATTC", 0.542],
  ["ATGTCTAGGTAAGACTCAGTTCAGTGAAGAACGC", -0.0514],
  ["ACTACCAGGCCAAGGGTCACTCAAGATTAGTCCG", 7.73],
  ["GGAACGAGGGCTTTCGAGTTGATAGCATGGCGAT", -0.499],
  ["CGTCCTAGGTCAATGCTAGGTCAGTGAAAGCATT", 1.31],
  ["TCTCGGAGGACATGAAGGTCAGAGCTTTCCAGAG", 1.8],
  ["AGAATCAGGTTATTAAGATCAGGGAATTGCGGTC", 0.97],
  ["CCTAGCAGGCCAGGGTCACTCAAGCATTTCGCTT", 0.635],
  ["AGAGCGAGGGCACGCTGAGTTGATAGCAGAGTAG", -0.152],
  ["GTACCAAGGTGACTAGGTCGTTGATGAGTAGGCG", 0.756],
  ["TGAATGAGATTATAAGATCAGGGAACGTTGCAAA", 0.406],
  ["TCATTTAGGTAATACAGGTGAAAGTCGGCATCTA", 3.72]
]}
